# test name: Pharmacokinetic studies in mice (LC-MS/MS)
# Format: in vivo, B6D2F1 mice
# conditions used: male, B6D2F1, mouse, brain, 10 mg kg^−1; oral administration; read-out: brain/plasma
measured quantity: Kp
When you answer, write just the number.

## Input Fill in Kp for record CC(C)(C)CNCCn1c(Sc2cc3c(cc2I)OCO3)nc2c(N)ncnc21
## Output 1.6

---

# test name: Pharmacokinetic studies in mice (LC-MS/MS)
# Assay type: in vivo, B6D2F1 mice
# conditions used: male, B6D2F1, mouse, brain, intravenous, 10 mg kg^−1, Brain; time 1 h; individual animals; read-out: Brain level
measured quantity: concentration at 1 h (nM)
Supply the numeric figure in nM, leaving out any unit text.

## Input Fill in concentration at 1 h for record CC(C)(C)CNCCn1c(Sc2cc3c(cc2I)OCO3)nc2c(N)ncnc21
## Output 2060
